Reference source for all entries: patent US11439707B2

Item-by-item account of maximum absorption wavelength
protocol-notes: absorption spectrum (maximum absorption wavelength, molar extinction coefficient)
Format: physicochemical
Note: unit nm is implicit; provide only the numeric part.

Worked examples follow.
| compound | maximum absorption wavelength, nm |
| --- | --- |
| COc1c(NCCC(=O)O)c2c(=O)cc(OC)c3c4c(OC)cc(=O)c5c(O)c(NCCC(=O)O)c6c(c(c1C(C(C)=O)C(C)=C6)c23)c54 (stereo not drawn) [HB-10b] | 615 |
| COc1c(NCc2ccccn2)c2c(=O)cc(OC)c3c4c(OC)cc(=O)c5c(O)c(NCc6ccccn6)c6c(c(c1C(C(C)=O)C(C)=C6)c23)c54 (stereo not drawn) [HB-38b] | 621 |
| COCCOCCNC(=O)CCCNc1c(NCCCC(=O)NCCOCCOC)c2c(=O)cc(OC)c3c4c(OC)cc(=O)c5c(O)c(OC)c6c(c(c1C=C(C)C6)c23)c54 [HC-8a-NH-PEG1] | 621 |
| COc1c2c3c4c(c(NC5CCCCC5C(=O)O)c(=O)c5c(NC6CCCCC6C(=O)O)cc(OC)c(c6c(OC)cc(O)c(c1=O)c63)c54)C=C(C)C2C(C)=O (stereo not drawn) [HB-16c] | 628 |
| COc1c(NCC(=O)O)c2c(=O)cc(OC)c3c4c(OC)cc(=O)c5c(O)c(NCC(=O)O)c6c(c(c1C(C(C)=O)C(C)=C6)c23)c54 (stereo not drawn) [HB-7b] | 622 |

Field: next compound
Query: Find the recorded maximum absorption wavelength belonging to CCCNc1c(NCCC)c2c(=O)cc(OC)c3c4c(OC)cc(=O)c5c(O)c(OC)c6c(c(c1C=C(C)C6C(C)=O)c23)c54 (stereo not drawn) [HB-33a] and report it.
Reply: 618

----------
Item-by-item account of molar extinction coefficient
protocol-notes: absorption spectrum (maximum absorption wavelength, molar extinction coefficient)
Format: physicochemical

| compound | experimental-endpoint | meas-value |
| --- | --- | --- |
| COCCOCCOCCOCCOCCOCCOCCOCCOCCNC(=O)C1CCC(CNc2c3c4c5c(c(OC)c(=O)c6c(O)cc(OC)c(c7c(OC)cc(NCC8CCC(C(=O)NCCOCCOCCOCCOCCOCCOCCOCCOCCOC)CC8)c(c2=O)c74)c65)CC(C)=C3)CC1 (stereo not shown) [HC-13c-NH-PEG8] | molar extinction coefficient | 33,500 M^−1cm^−1 |
| COc1c2c3c4c(c(NCc5cccc[n+]5C)c(=O)c5c(NCc6cccc[n+]6C)cc(OC)c(c6c(OC)cc(O)c(c1=O)c63)c54)C=C(C)C2C(C)=O (stereo not shown) [HB-38c-N^+] | molar extinction coefficient | 22,500 M^−1cm^−1 |
| COc1c2c3c4c(c(NCC5CCC(C(=O)OCCCCCC[P+](c6ccccc6)(c6ccccc6)c6ccccc6)CC5)c(=O)c5c(NCC6CCC(C(=O)OCCCCCC[P+](c7ccccc7)(c7ccccc7)c7ccccc7)CC6)cc(OC)c(c6c(OC)cc(O)c(c1=O)c63)c54)C=C(C)C2 (stereo not shown) [HC-30c-C6-PPh3^+] | molar extinction coefficient | 33,500 M^−1cm^−1 |

Query: Find the recorded molar extinction coefficient belonging to COc1c2c3c4c(c(NC(C(=O)O)C(C)C)c(=O)c5c(NC(C(=O)O)C(C)C)cc(OC)c(c6c(OC)cc(O)c(c1=O)c63)c54)C=C(C)C2C(C)=O (stereo not shown) [HB-22c] and report it.
Reply: 21,500 M^−1cm^−1
